Where these numbers come from: ChEMBL document CHEMBL3885861

- Species on record: Rattus norvegicus
- experiment.notes: Open TG-GATES - Regimen: Single
- Format: toxicity, organism-based, Sprague-Dawley
- Set-up: regimen Single, gender Male, age 6 weeks
- condition.context: in vivo, po, 0 mg/kg, 9 h, tissue Blood, route gavage, dose level Control
value.kind: RBC (x10_4/ul)

> print(dat)
                                    compound  value.kind  result.unit  reported.value
 1  CC(=O)[C@@]1(O)CC[C@H]2[C@@H]3C=C(Cl)C4=CC(=O)CC[C@]4(C)[C@H]3CC[C@@]21C         RBC     x10_4/ul             628
 2  CCCCNC(=O)NS(=O)(=O)c1ccc(C)cc1 [TOLBUTAMIDE]         RBC     x10_4/ul             633
 3                          O=c1ccc2ccccc2o1         RBC     x10_4/ul           598.6
 4  CN(CCOc1ccc(CC2SC(=O)NC2=O)cc1)c1ccccn1.O=C(O)/C=C\C(=O)O (stereo not given) [ROSIGLITAZONE MALEATE]         RBC     x10_4/ul             597
 5          CN(C)CCCN1c2ccccc2Sc2ccc(Cl)cc21         RBC     x10_4/ul           606.2
 6  COc1cc2ncnc(Nc3ccc(F)c(Cl)c3)c2cc1OCCCN1CCOCC1         RBC     x10_4/ul           601.2
 7  COc1ccc([C@@H]2Sc3ccccc3N(CCN(C)C)C(=O)[C@@H]2OC(C)=O)cc1         RBC     x10_4/ul           619.2
 8  NS(=O)(=O)c1cc(C(=O)O)c(NCc2ccco2)cc1Cl [FUROSEMIDE]         RBC     x10_4/ul           625.6
 9                   Nc1ccc(Cc2ccc(N)cc2)cc1         RBC     x10_4/ul           603.8
10                                       CCO         RBC     x10_4/ul           620.8
11      CN(C/C=C/C#CC(C)(C)C)Cc1cccc2ccccc12         RBC     x10_4/ul           637.4
12     CC(S)C(=O)NCC(=O)O (stereo not given)         RBC     x10_4/ul           639.2
13                CCN(CC)C(=S)SSC(=S)N(CC)CC         RBC     x10_4/ul           638.6
14                   O=C(O)c1ccccc1Nc1ccccc1         RBC     x10_4/ul           650.4
15  C=C[C@H]1C[N@@]2CC[C@H]1C[C@@H]2[C@@H](O)c1ccnc2ccc(OC)cc12         RBC     x10_4/ul           614.8
